Measured values drawn from paper PMC3057471 for this set.

Molecular target: F2 TnC (Lethocerus indicus)
Test: TnH peptide binding to F2 TnC by competition with melittin
Conditions: 1 mM Ca^2+, competition with melittin 0.33 μM, F2 TnC 1.4 μM, 20 °C, 20 mM Tris-HCl pH 6.8, 100 mM NaCl
Where no end group is shown, it is not given here.
Assay endpoint: pKd
Formally, pKd is defined as -log10 of the concentration c, with c in mol/L.

Lookup: Return reported pKd; argument: YDLNSQVNDLRGKFVKPTLKKVSKYENKFAKLQKK [TnH(126−159)]
Found: 5.51

###

Catalogue of pKd values
Target: F2 TnC (Lethocerus indicus)
Assay: TnH peptide binding to F2 TnC by competition with melittin
Conditions: 1 mM Ca^2+ and 5 mM Mg^2+, competition with melittin, 20 °C, 20 mM Tris-HCl pH 6.8, 100 mM NaCl
Where no end group is shown, it is not given here.
Formally, pKd is defined as -log10 of the concentration c, with c in mol/L.

>>> print(df.to_string())
                     macromolecule_sequence  assay_endpoint  measured_result
0  YKAKKAKKGFMTPERKKKLRLLLRKKAAEELKK [TnH(30−61)]             pKd             8.17

Could you now consider this next sequence?
Lookup: Return reported pKd; argument: YDLNSQVNDLRGKFVKPTLKKVSKYENKFAKLQKK [TnH(126−159)]
Found: 5.46

###

Target: F1 TnC (Lethocerus indicus)
Sequence (Q868D4 1-158): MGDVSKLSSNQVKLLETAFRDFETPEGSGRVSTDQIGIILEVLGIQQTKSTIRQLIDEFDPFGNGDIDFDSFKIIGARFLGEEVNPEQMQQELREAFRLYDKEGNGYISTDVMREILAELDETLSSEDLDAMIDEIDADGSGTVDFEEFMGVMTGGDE
Assay: TnH peptide binding to F1 TnC by competition with melittin
Conditions: metal: none (0.2 mM EGTA), 20 °C, 20 mM Tris-HCl pH 6.8, 100 mM NaCl
Where no end group is shown, it is not given here.
Catalogue of Kd values
Numbers only; they are read as µM.

>>> print(df.to_string())
                     macromolecule_sequence  assay_endpoint   u  measured_result
0  YDLNSQVNDLRGKFVKPTLKKVSKYENKFAKLQKK [TnH(126−159)]              Kd  µM             12.2

Could you now consider this next sequence?
Lookup: Return reported Kd; argument: YKAKKAKKGFMTPERKKKLRLLLRKKAAEELKK [TnH(30−61)]
Found: 0.0019

###

Biological target: F2 TnC (Lethocerus indicus, UniProt Q868D3)
Sequence (Q868D3 1-158): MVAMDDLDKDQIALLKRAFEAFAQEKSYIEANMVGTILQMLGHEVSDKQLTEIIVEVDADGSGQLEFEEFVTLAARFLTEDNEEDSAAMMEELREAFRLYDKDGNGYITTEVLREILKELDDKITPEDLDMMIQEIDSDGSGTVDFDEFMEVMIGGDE
Assay: TnH peptide binding to F2 TnC by competition with melittin
Details: 1 mM Ca^2+ (holo), competition with melittin 0.33 μM, F2 TnC 1.4 μM, 20 °C, 20 mM Tris-HCl pH 6.8, 100 mM NaCl
Where no end group is shown, it is not given here.
Assay endpoint: pKd
Formally, pKd is defined as -log10 of the concentration c, with c in mol/L.

Lookup: Return reported pKd; argument: YKAKKAKKGFMTPERKKKLRLLLRKKAAEELKK [TnH(30−61)]
Found: 8.11
